Data origin: the supplement of paper PMC9732359

Hi there, I'd appreciate the recorded protein stability index for every entry that follows.
- protocol: protein stability index of a GFP-peptide fusion (yeast GPS) (PSI 1-4); higher = more stable; sorted into four equal gates, so the index is relative within each strain
- measurement-parameters: pdr5∆
Answers are plain numbers.

Some sequences with known protein stability index results, for comparison:
ITSINVENDTFIERNFT [FAS2]: 2.68
FIDHHAAIRQPTRYVLI [POP1]: 2.08
FLNSNAVVVGTGNIKHE [COR1]: 1.36
NAAVAGVANTDTAGEES [SWI3]: 3.27
CSNNKNSIKNVPPILII [SSN2]: 2.28
GGNNNNNSTGIANDNVI [SWI1]: 3
FKKDFEVNISSLDAREA [RPC40]: 1.58
FRKVKLRVDEVQGKNLL [RPS1B]: 3.35
ANCQRQLTEFWTELCQR [NNF1]: 2.87
NNKKVVGTAIDSILNYA [ECM29]: 2.75

List reported protein stability index for each of these sequences:
1. ILQIREEIPSKSWDDSV [RRP6]
2. GSESDDSEGSIKQTSDE [ECM29]
3. FTAEGIVPDLIINPHAI [RPB2]

output:
2.76
3.57
2.36

List reported protein stability index for each of these sequences:
1. LSSETGIKLALDPNLIT [SRB4]
2. GSGLLKLSEIILNINNS [SWI1]
3. IPVEILVRRLSDIKQGY [PRE9]
4. SQRPGARILARSERKRT [ITC1]
5. KVAPAPFGAKSTKSNKA [RPL8B]
6. FHGTSTKANDKNESATI [FAS2]

output:
3
2.69
2.72
2.79
2.78
2.8

List reported protein stability index for each of these sequences:
1. KVLNEISKTTLTLDPRY [RPN3]
2. NKVQIMIATNVAARGLD [PRP28]
3. LLGTMAGGAADCQFWET [PRE2]
4. MLLGTDLCSLKPYVDRF [DIS3]

output:
2.99
1.5
2.6
2.68

###

- protocol: protein stability index of a GFP-peptide fusion (yeast GPS) (PSI 1-4); higher = more stable; sorted into four equal gates, so the index is relative within each strain
- measurement-parameters: san1∆
readout-type: protein stability index
Give bare numbers.

Some sequences with known protein stability index results, for comparison:
VETNTTVLADEFIAHRL [RPB3]: 3.19
GDLKLQVLLDEEYKQLV [RPO21]: 2.73
PVIDYELKEITSLPDWC [BRR2]: 3.1
EDEGEELTDEYLAENPD [PRP8]: 3.33

List reported protein stability index for each of these sequences:
1. HTLMSFAGEAGDTVQFA [PRE1]
2. TDAGVLALKLELLDFLT [YJL039C/NUP192]
3. NKINSRNSWNFALIDYF [BRN1]
4. RPFDSFGKLLQAYQFLN [ITC1]
5. MNKDQAEKYQERSLRQK [SNM1]
6. YDEDPYGFEDESAPITA [RPB2]
7. DRKDQDDRDHFGKKRLD [RPB2]
8. ASVEIVFHDPDHSMILP [SMC3]

output:
1. 2.95
2. 2.96
3. 1.11
4. 1.48
5. 3.35
6. 3.24
7. 3.28
8. 2.98

List reported protein stability index for each of these sequences:
1. AGCKIDNVDDIGEFNVS [YDL088C/ASM4]
2. KKEYIELDILNKGWKLQ [SRB4]

output:
1. 2.94
2. 2.76
